Reported IC50 at 72 h values for the following molecules.
# test: Antiproliferative activity against human L02 cells treated for 72 hrs by MTT assay
# Type: toxicity, cell-based

molecule	measure-unit	comparator	IC50 at 72 h
COc1ccc2[nH]c3c(c2c1)CCN1C(=O)c2cc(F)ccc2N(c2cc(C)cc(F)c2)C31 (stereo not given)	µM	>	6
COc1ccc2[nH]c3c(c2c1)CCN1C(=O)c2cc(F)ccc2N(c2cc(F)ccc2Cl)C31 (stereo not given)	µM	>	6
COc1ccc2[nH]c3c(c2c1)CCN1C(=O)c2cc(F)ccc2N(c2ccc(Cl)c(F)c2)C31 (stereo not given)	µM	=	2.69
COc1ccc2[nH]c3c(c2c1)CCN1C(=O)c2cc(F)ccc2N(c2cc(F)cc(Br)c2)C31 (stereo not given)	µM	=	5.97
COc1cc(F)cc(N2c3ccc(F)cc3C(=O)N3CCc4c([nH]c5ccc(OC)cc45)C32)c1 (stereo not given)	µM	=	5.78
